Test system: Purified TDH derived from Cupriavidus necator NBRC 102504
procedure_summary: Effect of metal ions and inhibitors on TDH activity (residual activity)
Format: biochemical
experimental_conditions: metal ions final concentration 1 mM, 30° C. for 1 hour; relative to enzyme without additives
Hi there, I'd appreciate the recorded Relative activity (residual TDH activity) for every entry that follows.

Look up Relative activity (residual TDH activity) for the entries below, preserving their order.
1. [Ca+2].[Cl-].[Cl-]
2. O=[N+]([O-])[O-].[Ag+]
3. [Cl][Pb][Cl]

A:
1: 109%; 2: 100%; 3: 118%

* * *

Tested on: Purified TDH derived from Cupriavidus necator NBRC 102504
procedure_summary: Effect of metal ions and inhibitors on TDH activity (residual activity)
Assay type: biochemical
experimental_conditions: metal ions final concentration 1 mM, 30° C. for 1 hour; relative to enzyme without additives
outcome_measure: Relative activity (residual TDH activity) (%)
Give bare numbers, in %.

O=S(=O)([O-])[O-].[Zn+2]; 109
[Cl][Cu][Cl]; 117
O=S(=O)([O-])[O-].[Cu+2]; 115
[Cl][Al]([Cl])[Cl]; 118
[Cl][Fe]([Cl])[Cl]; 27

Look up Relative activity (residual TDH activity) for the entries below, preserving their order.
1. [Na+].[Na+].[O]=[Mo](=[O])([O-])[O-]
2. [Cl-].[Cl-].[Mg+2]
3. [Cl-].[Cl-].[Zn+2]
4. [Cl-].[Li+]
5. [Cl-].[Cs+]

A:
1: 113; 2: 112; 3: 105; 4: 109; 5: 117

Q: Give the value of Relative activity (residual TDH activity) reported for the following: [Cl][Sn][Cl]
A: 84
